- Tested on: Cryptococcus neoformans
- CONDITION_CONTEXT: Concentration 32 ug.mL-1; ASSAY_TEST Inhibition of Fungal Growth; detection method Resazurin; Absorption (OD600-OD570); plate type 384well; NBS; CORNING #3640
- Description: Antifungal activity against Cryptococcus neoformans H99 ATCC 208821 (CO-ADD:FG_002); MIC in YNB media using NBS plates, by Resazurin OD(600-570)
Measured potencies and affinities stand elsewhere.
# if value of Inhibition reaches -10%, tag fulfilled; if it stays below, tag not fulfilled

> print(dat)
                              record.smiles           assayed.system  assigned.category
1  COc1ccc(-n2ccn3c(=O)n(Cc4cc(C)ccc4C)nc3c2=O)cc1Cl  Cryptococcus neoformans          fulfilled
2  O=c1c2sccc2n2c(=O)n(Cc3ccc(F)cc3)nc2n1CCc1ccccc1  Cryptococcus neoformans          fulfilled
3  CCCCOc1ccc(-c2cc3c4nnc(SCC(=O)Nc5ccc(C)c(F)c5)n4ccn3n2)cc1  Cryptococcus neoformans      not fulfilled
4  Cc1cc(C)c(NC(=O)Cn2nc3c(SCc4ccc(Cl)cc4)nccn3c2=O)c(C)c1  Cryptococcus neoformans      not fulfilled
5  Cc1cc2nn(CC(=O)Nc3cccc(F)c3)c(=O)n2c(Nc2ccc(F)c(C)c2)n1  Cryptococcus neoformans          fulfilled
6  COc1cccc(CN(c2cc(F)cc(F)c2)S(=O)(=O)c2ccc3nnc(C)n3c2)c1  Cryptococcus neoformans          fulfilled
7  Cc1ccc(CNC(=O)Cn2nc3c(SC4CCCCC4)nccn3c2=O)cc1  Cryptococcus neoformans      not fulfilled
8  COc1ccc(N(Cc2cccc(C)c2)S(=O)(=O)c2ccc3nnc(C)n3c2)cc1  Cryptococcus neoformans          fulfilled

Ask: Reported Inhibition reaches at least -10% for `O=C(Cn1nc2nc(Nc3ccc(F)cc3)ccn2c1=O)NCc1ccc(F)cc1Cl` ?
Result: fulfilled

Ask: For this compound, is measured Inhibition -10% or higher? `Cc1ccc(NC(=O)Cn2nc3c(SCc4ccc(Cl)cc4)nccn3c2=O)c(C)c1`
Result: not fulfilled

Ask: Textbook exercise: given the entry `Cc1cccc(NC(=O)Cn2nc3c(SCc4ccccc4)nccn3c2=O)c1C` , state whether its Inhibition is greater than or equal to -10%.
Result: not fulfilled

Ask: Quick check, Inhibition >= -10%? `CCc1nnc2c(S(=O)(=O)N(Cc3ccc(F)cc3)c3cccc(Cl)c3)cccn12`
Result: fulfilled

----------
- Tested on: Klebsiella pneumoniae
- CONDITION_CONTEXT: Concentration 32 ug.mL-1;; ASSAY_TEST Inhibition of Bacterial Growth; detection method Absorption (OD600); MEDIA CAMHB; plate type 384well; NBS; CORNING #3640; time 18 hr
- Description: Antibacterial activity against Klebsiella pneumoniae MDR ATCC 70063 (CO-ADD:GN_003); MIC in CAMBH media using NBS plates, by OD(600)
Entries with a potency or affinity are not part of this list.
MEASURE_NAME: Inhibition (%)
Provide only the numeric value, understood in %.

> print(dat)
                              record.smiles  result.value
1  Cc1cc2nn(CC(=O)Nc3ccccc3C)c(=O)n2c(Nc2ccc(F)c(C)c2)n1          13.6
2  Cc1ccc(C)c(NC(=O)Cn2nc3c(SCc4ccc(Cl)cc4)nccn3c2=O)c1         13.13

Ask: Consider the compound `COc1ccc(-c2cc3c4nn(CC(=O)Nc5ccc(OC)cc5OC)c(=O)n4ccn3n2)cc1` . State its measured Inhibition.
Result: 12.55

Ask: Fill in Inhibition for record `CC(C)CCNC(=O)Cn1nc2n(Cc3ccco3)c(=O)c3sccc3n2c1=O`
Result: 8.27

Ask: Find the measured Inhibition of `COc1cccc(Cn2nc3ccc(-c4ccccc4)nn3c2=O)c1` and report it.
Result: 7.25

Ask: Report measured Inhibition; entry is `CSc1cccc(NC(=O)Cn2nc3c(SCc4ccc(Cl)cc4)nccn3c2=O)c1`
Result: 7.71

----------
- Test system: Klebsiella pneumoniae
- CONDITION_CONTEXT: Concentration 32 ug.mL-1;; ASSAY_TEST Inhibition of Bacterial Growth; detection method Absorption (OD600); MEDIA CAMHB; plate type 384well; NBS; CORNING #3640; time 18 hr
Results with a measured potency or affinity are listed apart.
MEASURE_NAME: Inhibition (%)
Express the result in % but write the number alone.

Look over these answered cases.
> print(dat)
                                   molecule  result.value
1  O=c1c2nn(Cc3ccc([N+](=O)[O-])cc3)c(=O)n2ccn1-c1ccccc1         13.17
2  Cc1nnc2c(SCC(=O)Nc3ccc4c(c3)OCCO4)nc3ccccc3n12          9.06

Ask: Entry `Cc1nnc2c(=O)n(CC(=O)Nc3ccc(F)cc3F)c3ccccc3n12` needs its Inhibition filled in; supply it.
Result: 12.43

Ask: Give Inhibition for `CCOC(=O)c1ccccc1NC(=O)Cn1nc2c(Oc3ccccc3)nccn2c1=O`
Result: 14.49

Ask: Report Inhibition, nothing else, for this molecule: `Cc1cc2nn(CC(=O)Nc3cccc(C)c3C)c(=O)n2c(Nc2ccc(C)c(F)c2)n1`
Result: 16.72

Ask: Report Inhibition, nothing else, for this molecule: CCC(C)NC(=O)c1ccc2c(=O)n(C3CC3)c3nn(CC(=O)NC(C)C)c(=O)n3c2c1 (stereo not given)
Result: 17.09

Ask: Specify Inhibition for `Cc1cccc(CN(c2cccc(F)c2)S(=O)(=O)c2ccc3nncn3c2)c1` and stop.
Result: 14.36

Ask: Tell me measured Inhibition for `O=S(=O)(c1cccn2cnnc12)N(Cc1ccc(F)cc1)c1ccc(F)cc1` please.
Result: 4.83

Ask: State its Inhibition: `CC(C)NC(=O)CSc1nnc2c(=O)n(Cc3ccc(F)cc3)ccn12`
Result: 4.17

Ask: Supply measured Inhibition of `CCc1nnc2c(=O)n(CC(=O)Nc3ccc(C#N)cc3)c3ccccc3n12` in your reply.
Result: 5.17

----------
Items are presented alongside their recorded Inhibition.
- System: Cryptococcus neoformans
- CONDITION_CONTEXT: Concentration 32 ug.mL-1; ASSAY_TEST Inhibition of Fungal Growth; detection method Resazurin; Absorption (OD600-OD570); plate type 384well; NBS; CORNING #3640
Potency and affinity values are given separately.

Consider the following illustrative entries.
> print(dat)
                              record.smiles  measure.name  result.value
1      CCOc1ccc(-n2ccn3c(SCC#N)nnc3c2=O)cc1    Inhibition        -3.42%
2  COc1ccc(NC(=O)Cn2nc3nc(Nc4ccc(F)cc4)ccn3c2=O)cc1Cl    Inhibition        -6.17%
3  COc1ccc(NC(=O)Cn2nc3c(Sc4ccccc4)nccn3c2=O)cc1OC    Inhibition       -22.41%
4  Cc1ccc(Sc2nccn3c(=O)n(CC(=O)Nc4cccc(Cl)c4)nc23)c(C)c1    Inhibition       -21.78%

Ask: // Input: `COc1ccc(NC(=O)c2ccc3nn(CC(=O)N4CCN(c5ccccc5)CC4)c(=O)n3c2)cc1` . Output its Inhibition only.
Result: -6.91%

----------
- System: Candida albicans
- CONDITION_CONTEXT: Concentration 32 ug.mL-1; ASSAY_TEST Inhibition of Fungal Growth; detection method Absorption (OD530)
- Description: Antifungal activity against Candida albicans ATCC 90028 (CO-ADD:FG_001); MIC in YNB media using NBS plates, by OD630
Measured potencies and affinities stand elsewhere.
MEASURE_NAME: Inhibition (%)
Unit % implied. Number only.

Some solved entries appear below for comparison.
> print(dat)
                              record.smiles  result.value
1  Cc1cccc(CN(c2ccc(Cl)cc2)S(=O)(=O)c2cccn3c(C)nnc23)c1          1.95
2  Cc1ccc(-n2ccn3c(=O)n(Cc4ccccc4F)nc3c2=O)cc1C          0.26

Ask: Give a short answer stating reported Inhibition for `O=C(Cn1nc2c(Sc3cccc(F)c3)nccn2c1=O)Nc1ccc(F)c(Cl)c1` .
Result: 9.34

Ask: Please look at this compound and report its Inhibition: `CCOc1ccc(NC(=O)CSc2nnc3c(=O)n(-c4ccc(OCC)cc4)ccn23)cc1`
Result: 2.39

Ask: Name the recorded Inhibition of the item `COc1ccc(NC(=O)Cn2nc3c4cc(-c5ccc(C)cc5)nn4ccn3c2=O)cc1` in your answer.
Result: -0.28

Ask: Report Inhibition for `Cc1ccc(C)c(CN(c2cccc(Cl)c2)S(=O)(=O)c2cccn3c(C)nnc23)c1`
Result: 2.43

Ask: Supply measured Inhibition of `COc1cccc(-n2ccn3c(SCC(=O)NCc4ccco4)nnc3c2=O)c1` in your reply.
Result: 4.76

----------
- System: Candida albicans
- CONDITION_CONTEXT: Concentration 32 ug.mL-1; ASSAY_TEST Inhibition of Fungal Growth; detection method Absorption (OD530)
Results with a measured potency or affinity are listed apart.
MEASURE_NAME: Inhibition (%)
Numeric only. Scale: %

> print(dat)
                                   compound  measure.name  units.of.measure  result.value
1  CCc1nnc2ccc(S(=O)(=O)N(Cc3ccc(F)cc3)c3ccccc3)cn12    Inhibition                 %         -0.14
2  CCC(Sc1nnc2c(=O)n(-c3ccc(C)c(C)c3)ccn12)C(=O)Nc1cc(OC)ccc1OC (stereo not given)    Inhibition                 %          2.66
3  CCc1nnc2c(=O)n(CC(=O)Nc3ccc(Br)cc3F)c3ccccc3n12    Inhibition                 %          6.85
4  Cc1ccc(CN(c2ccc3c(c2)OCO3)S(=O)(=O)c2ccc3nnc(C)n3c2)cc1    Inhibition                 %          2.45
5  CCc1nnc2c(SCC(=O)Nc3ccc(OC)c(Cl)c3)nc3ccccc3n12    Inhibition                 %          5.38

Ask: In one line, give reported Inhibition of the entry `Cc1ccccc1Cn1nc2c(=O)n(-c3ccc(Br)cc3)ccn2c1=O` .
Result: 0.14

Ask: Return Inhibition for the following compound: `Cc1ccc(-c2ccc3nnc(CCC(=O)NCc4cccc(Br)c4)n3n2)cc1C`
Result: 4.88

Ask: Identify measured Inhibition associated with `O=C(Cn1nc2c(Sc3ccccc3)nccn2c1=O)Nc1ccc2c(c1)OCCO2`
Result: -0.06

Ask: Look up and report measured Inhibition for this entry: `Cc1ccc(-c2cc3c4nnc(SCC(=O)Nc5ccccc5Br)n4ccn3n2)cc1`
Result: 5.08

Ask: Recall and state the measured Inhibition for `Cc1nnc2c(=O)n(CC(=O)Nc3ccc(F)cc3F)c3ccccc3n12` .
Result: -0.68
